Reference source: patent US8143242B2

tgt: human factor VIIa and TF (factor VIIa/tissue factor) (Homo sapiens)
Construct: human factor VIIa and TF
procedure.details: Factor VIIa (FVIIa) chromogenic assay
Assay type: biochemical
assay.context: chromogenic substrate S-2288 500 μM; 5 nM FVIIa, 10 nM TF; 25° C.; 15 minute preincubation; pH 8.15
pKi: −log10 of the molar value.
measurement.name: pKi

Cc1ncsc1CCOc1ccc(C(C)NC(=O)CC(=O)Nc2ccc(C(=N)N)cc2)cc1Br (stereo not shown)
7.06
CC(NC(=O)CC(=O)Nc1ccc(C(=N)N)cc1)c1ccc(OCc2ccoc2)c(Br)c1 (stereo not shown)
7.06

1 = C[C@H](NC(=O)CC(=O)Nc1ccc(C(=N)N)cc1)c1ccc(OC2CCOCC2)c(-c2ccc(Cl)s2)c1
2 = CC(NC(=O)CC(=O)Nc1ccc(C(=N)N)cc1)c1ccc(S(=O)(=O)N2CCOCC2)c(C(F)(F)F)c1 (stereo not shown)
Identify the entry with the larger pKi. Options: 1 and 2 To answer, give the label that identifies your chosen option.
1
(1: 8.15, 2: 7.26)

----------
tgt: human factor VIIa and TF (factor VIIa/tissue factor) (Homo sapiens)
Construct: human factor VIIa and TF
procedure.details: Factor VIIa (FVIIa) chromogenic assay
assay.context: chromogenic substrate S-2288 500 μM; 5 nM FVIIa, 10 nM TF; 25° C.; 15 minute preincubation; pH 8.15
measurement.name: Ki (nM)

Previously resolved entries follow.
C[C@H](NC(=O)CC(=O)Nc1ccc(C(=N)N)cc1)c1ccc(S(=O)(=O)N2CCOCC2)c(Br)c1
30
C[C@H](NC(=O)CC(=O)Nc1ccc(C(=N)N)cc1)c1ccc(Oc2cncc(C(=O)O)c2)c(Br)c1
41

1 = CC(NC(=O)CC(=O)Nc1ccc(C(=N)N)cc1)c1ccc(OCCCCO)c(C(F)(F)F)c1 (stereo not shown)
2 = CC(C)OCCOc1ccc(C(C)NC(=O)CC(=O)Nc2ccc(C(=N)N)cc2)cc1C(F)(F)F (stereo not shown)
Lower value for measured Ki? Options: 1 , 2 Lab note: record the label of whichever item you select.
2

----------
tgt: human factor VIIa and TF (factor VIIa/tissue factor) (Homo sapiens, UniProt P08709)
Construct: human factor VIIa and TF
Sequence (P08709 213-466 limits assumed): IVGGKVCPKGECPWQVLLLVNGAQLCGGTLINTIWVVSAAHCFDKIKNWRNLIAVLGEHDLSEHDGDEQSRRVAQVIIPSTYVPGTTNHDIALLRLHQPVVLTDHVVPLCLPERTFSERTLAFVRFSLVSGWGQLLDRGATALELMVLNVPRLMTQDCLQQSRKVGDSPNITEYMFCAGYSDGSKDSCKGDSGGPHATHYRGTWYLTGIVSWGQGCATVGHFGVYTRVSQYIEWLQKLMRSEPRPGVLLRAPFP
Sequence (P08709 61-212 limits assumed): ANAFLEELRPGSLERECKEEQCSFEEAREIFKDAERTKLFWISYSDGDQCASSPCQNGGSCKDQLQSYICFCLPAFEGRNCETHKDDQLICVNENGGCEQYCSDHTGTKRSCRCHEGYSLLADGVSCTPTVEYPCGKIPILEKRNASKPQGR
Sequence (P13726 33-295 partner): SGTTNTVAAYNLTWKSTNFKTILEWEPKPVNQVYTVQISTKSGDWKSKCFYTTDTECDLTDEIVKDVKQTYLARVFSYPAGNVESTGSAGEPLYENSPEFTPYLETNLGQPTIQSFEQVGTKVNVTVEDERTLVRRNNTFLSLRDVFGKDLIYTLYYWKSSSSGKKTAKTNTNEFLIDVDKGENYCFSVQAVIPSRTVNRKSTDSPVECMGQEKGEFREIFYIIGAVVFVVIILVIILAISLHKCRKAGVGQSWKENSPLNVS
procedure.details: Factor VIIa (FVIIa) chromogenic assay
assay.context: chromogenic substrate S-2288 500 μM; 5 nM FVIIa, 10 nM TF; 25° C.; 15 minute preincubation; pH 8.15
pKi: −log10 of the molar value.
measurement.name: pKi

A = CC(NC(=O)CC(=O)Nc1ccc(C(=N)N)cc1)c1ccc(S(=O)(=O)Cc2ccncc2)c(Cl)c1 (stereo not shown)
B = COCCNS(=O)(=O)c1ccc([C@H](C)NC(=O)CC(=O)Nc2ccc(C(=N)N)cc2)cc1C(F)(F)F
C = CC(NC(=O)CC(=O)Nc1ccc(C(=N)N)cc1)c1ccc(Oc2cccc(CO)c2)c(Br)c1 (stereo not shown)
D = CC(NC(=O)CC(=O)Nc1ccc(C(=N)N)cc1)c1ccc(OCCCN2CCCC2=O)c(C(F)(F)F)c1 (stereo not shown)
// ascending sort on pKi for the entries above Rank them, then answer with their labels in that order.
A, C, D, B

----------
tgt: human factor VIIa and TF (factor VIIa/tissue factor) (Homo sapiens, UniProt P08709)
Construct: human factor VIIa and TF
procedure.details: Factor VIIa (FVIIa) chromogenic assay
assay.context: chromogenic substrate S-2288 500 μM; 5 nM FVIIa, 10 nM TF; 25° C.; 15 minute preincubation; pH 8.15
pKi: −log10 of the molar value.
measurement.name: pKi

A = C[C@H](NC(=O)CC(=O)Nc1ccc(C(=N)N)cc1)c1ccc(OCCO)c(C(F)(F)F)c1
B = CC(NC(=O)CC(=O)Nc1ccc(C(=N)N)cc1)c1ccc(OCCCCCC(=O)O)c(Br)c1 (stereo not shown)
C = COCCOc1ccc([C@H](C)NC(=O)CC(=O)Nc2ccc(C(=N)N)cc2)cc1C(F)(F)F
Reorder: pKi, max to min. // rank by listing labels in the order requested
C, A, B
